Values from patent US20100022509A1

# target-desc: MshC (Mycobacterium tuberculosis, UniProt P9WJM9)
# Sequence (P9WJM9 whole entry): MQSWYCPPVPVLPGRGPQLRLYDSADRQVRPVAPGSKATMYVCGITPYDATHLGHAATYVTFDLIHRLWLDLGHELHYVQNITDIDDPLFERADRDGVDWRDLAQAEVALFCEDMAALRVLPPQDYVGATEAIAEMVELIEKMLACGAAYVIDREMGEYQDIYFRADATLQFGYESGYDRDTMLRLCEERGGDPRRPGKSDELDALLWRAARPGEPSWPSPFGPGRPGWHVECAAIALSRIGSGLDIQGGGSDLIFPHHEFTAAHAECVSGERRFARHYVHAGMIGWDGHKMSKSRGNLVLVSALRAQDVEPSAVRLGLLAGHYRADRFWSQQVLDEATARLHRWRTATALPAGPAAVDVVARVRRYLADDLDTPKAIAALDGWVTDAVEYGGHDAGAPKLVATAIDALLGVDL
# method-description: biochemical
# Format: biochemical, M. tuberculosis
# settings: X=S, X=SO, X=SO2
observation-type: inhibition of MshC in words, compounds grouped by X

molecule: O=C(NCCCN1CCCC1)c1ccc2c(c1)N(Cc1cccc(Cl)c1)C(=O)c1ccccc1S2
target-desc: MshC (Mycobacterium tuberculosis, UniProt P9WJM9)
value-observed: Significant inhibition
--
molecule: Cc1ccc(C)c(CN2C(=O)c3ccccc3[S+]([O-])c3ccc(C(=O)NCCCN(C)C4CCCCC4)cc32)c1 (stereo not shown)
target-desc: MshC (Mycobacterium tuberculosis, UniProt P9WJM9)
value-observed: Significant inhibition
--
molecule: CC1CCCN(CCCNC(=O)c2ccc3c(c2)N(Cc2ccccc2F)C(=O)c2ccccc2S3(=O)=O)C1 (stereo not shown)
target-desc: MshC (Mycobacterium tuberculosis, UniProt P9WJM9)
value-observed: Significant inhibition
--
molecule: Cc1ccc(C)c(CN2C(=O)c3ccccc3[S+]([O-])c3ccc(C(=O)NCCCN4CCCC4)cc32)c1 (stereo not shown)
target-desc: MshC (Mycobacterium tuberculosis, UniProt P9WJM9)
value-observed: Significant inhibition
